Test system: ARAT
ASSAY_PROCEDURE: Assay for ARAT activity, RPE microsomes
Format: biochemical, bovine
MEASUREMENT_PARAMETERS: 10 μm compound
REPORTED_ENDPOINT: % Inhibition ARAT (10 μm) (%)
Write it as a number; the unit % goes unstated.

The following compounds have reported results that may help.
In [3]: df
Out[3]:
                                   compound  units_label  quantitative_result
0  CCCCCCCC(=O)OC[C@H](COP(=O)(O)OCCN)OC(=O)CCCCCCC            %                   23
1                       CC(C)=CCC/C(C)=C/CO            %                   13

Now, please, on to the next compound.
I am curious: what % Inhibition ARAT (10 μm) value has been reported for CC(/C=C/C=C(\C)C(=O)O)=C\C=C\C=C(C)\C=C\C=C(/C)C(=O)O ?
15
